- System: third stage larvae of Haemonchus contortus
- Assay Overview: Haemonchus contortus, Larvae Stage 3 (HcL3) In Vitro Assay
- Assay type: cell-based
- Measurement Parameters: Haemonchus contortus, 96 h, read-out: HcL3 MED, Minimum Effective Dose, H. contortus third stage larvae, approximately 96 hours
Value Kind: minimal effective concentration (µM)

Compound	Unit Annotation	Value
CC(C)C[C@H]1C(=O)O[C@H](Cc2ccc(Cc3nccs3)cc2)C(=O)N(C)[C@@H](CC(C)C)C(=O)O[C@H](C)C(=O)N(C)[C@@H](CC(C)C)C(=O)O[C@H](Cc2ccc(Cc3nccs3)cc2)C(=O)N(C)[C@@H](CC(C)C)C(=O)O[C@H](C)C(=O)N1C [Example 3-17]	µM	0.5
CC(C)C[C@H]1C(=O)O[C@H](Cc2ccc(Cc3cnccc3C(F)F)cc2)C(=O)N(C)[C@@H](CC(C)C)C(=O)O[C@H](C)C(=O)N(C)[C@@H](CC(C)C)C(=O)O[C@H](Cc2ccc(Cc3cnccc3C(F)F)cc2)C(=O)N(C)[C@@H](CC(C)C)C(=O)O[C@H](C)C(=O)N1C [Example 3-295]	µM	1.8
Cc1[nH]ncc1Cc1ccc(C[C@H]2OC(=O)[C@H](CC(C)C)N(C)C(=O)[C@@H](C)OC(=O)[C@H](CC(C)C)N(C)C(=O)[C@@H](Cc3ccc(Cc4cn[nH]c4C)cc3)OC(=O)[C@H](CC(C)C)N(C)C(=O)[C@@H](C)OC(=O)[C@H](CC(C)C)N(C)C2=O)cc1 [Example 3-243]	µM	7.5
CC(C)C[C@H]1C(=O)O[C@H](Cc2ccc(Cc3ccco3)cc2)C(=O)N(C)[C@@H](CC(C)C)C(=O)O[C@H](C)C(=O)N(C)[C@@H](CC(C)C)C(=O)O[C@H](Cc2ccccc2)C(=O)N(C)[C@@H](CC(C)C)C(=O)O[C@H](C)C(=O)N1C [Example 4-32]	µM	1
